Reference for the values: PubChem BioAssay (EPA / NIEHS)

Assay: TOX21_p53_BLA_p3_viability: Viability Assessment in the Tox21 HCT-116 p53 Agonism Beta-lactamase Assay, Phase 3 (AID 2283593);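 note: cells exposed to compound for 16 h before reading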
Source text: TOX21_p53_BLA_p3 is a cell-based, single-readout assay that uses HCT116, a human intestinal cell line, […] in a 1536-well plate.TOX21_p53_BLA_p3_viability is an assay readout measuring cellular ATP content and detected with CellTiter-Glo Luciferase-coupled ATP quantitation.TOX21_p53_BLA_p3_viability used a type of viability reporter where loss-of-signal activity can be used to understand changes in the cell viability. […]
Results filed as inconclusive are left out. Calls of active or inactive are those of the source. Rule for the calls: active = hit-call score of the fitted dose curve at least 0.9, where 1 is the maximum; inconclusive = response in the unintended direction; inactive = score below 0.9.
Lab note: assign the record to one of YES = active, NO = inactive

compound	discreteLabel
COc1ccc(N=Nc2cc(C)c(N=Nc3ccc(S(=O)(=O)O)cc3)cc2OC)cc1	NO
CC(=O)C1(C)CC2=C(CCCC2(C)C)CC1C (stereo not drawn)	NO
CC(C)CCCCCCCCCCCCCCC(=O)O	NO
Cc1ccc(N)c(S(=O)(=O)O)c1	NO
CC(C)=CCCC(C)CCOC=O (stereo not drawn)	YES
COC(C)(C)CC(C)=O	NO
NCCNc1cccc2ccccc12	NO
O=[N+]([O-])c1cccc(Cl)c1	NO

Query string: Test call for this compound, please: CCC1(c2ccccc2)C(=O)NCNC1=O
Result string: NO

Query string: Recorded test outcome, item CCCCCC(C=O)=Cc1ccccc1
Result string: NO

Query string: # outcome recorded in this test, key = CC=CC=CCOC(=O)C(C)C
Result string: NO

Query string: Write down the call the test reported for this compound. Item: CC(=O)CC(=O)Nc1ccc(C)cc1C
Result string: NO

Query string: Would you mind telling me which call this test gave CCc1cc(Cc2cc(CC)cc(C(C)(C)C)c2O)c(O)c(C(C)(C)C)c1 ?
Result string: YES

----------
Target: Hypoxia-inducible factor 1-alpha (Homo sapiens) (UniProt Q16665)
Sequence (Q16665 whole entry, looked up): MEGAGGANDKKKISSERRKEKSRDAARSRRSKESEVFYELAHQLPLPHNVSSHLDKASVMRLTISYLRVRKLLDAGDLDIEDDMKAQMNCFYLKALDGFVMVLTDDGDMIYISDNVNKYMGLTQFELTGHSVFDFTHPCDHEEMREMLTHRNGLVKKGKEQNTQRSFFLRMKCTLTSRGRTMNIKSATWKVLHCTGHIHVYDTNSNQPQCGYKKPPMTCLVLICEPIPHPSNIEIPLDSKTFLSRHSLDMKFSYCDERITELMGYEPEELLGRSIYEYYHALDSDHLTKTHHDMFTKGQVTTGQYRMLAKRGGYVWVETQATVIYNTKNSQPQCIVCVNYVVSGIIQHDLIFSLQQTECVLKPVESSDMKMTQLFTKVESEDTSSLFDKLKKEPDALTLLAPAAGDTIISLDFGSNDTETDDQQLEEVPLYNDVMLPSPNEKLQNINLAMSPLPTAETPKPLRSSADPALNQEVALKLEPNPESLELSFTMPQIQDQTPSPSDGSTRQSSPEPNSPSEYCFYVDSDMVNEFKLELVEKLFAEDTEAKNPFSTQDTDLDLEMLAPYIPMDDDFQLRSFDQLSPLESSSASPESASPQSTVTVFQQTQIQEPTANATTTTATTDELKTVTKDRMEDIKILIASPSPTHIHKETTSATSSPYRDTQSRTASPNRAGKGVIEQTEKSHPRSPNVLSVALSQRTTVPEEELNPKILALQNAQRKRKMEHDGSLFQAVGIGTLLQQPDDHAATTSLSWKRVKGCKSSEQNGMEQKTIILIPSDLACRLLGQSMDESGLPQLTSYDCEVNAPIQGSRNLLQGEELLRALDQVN
Assay: ATG_HIF1a_CIS: Attagene CIS-FACTORIAL HepG2 Assay for human Hypoxia Inducible Factor 1 (HIF1A) (AID 2282951)
Conditions: HepG2 Attagene cis-factorial HIF1a reporter transcription; actives raise or lower the signal
Activity calls are given as the source filed them. How the source made its calls: active means hit-call score of the fitted dose curve at least 0.9, where 1 is the maximum; inactive means score below 0.9.
Hi there, use one of these labels in your reply, thanks! active, inactive

compound	discreteLabel
CS(C)=O	inactive
C=CC(C)C#N (stereo unspecified)	inactive
CC(=O)Nc1ccc(C(=O)CCl)cc1	inactive

Query string: Recorded test call requested for C=C(C)[C@H]1CC=C(C)C(=O)C1
Result string: inactive

Query string: Lab log entry: Clc1cc(Cl)c(-c2c(Cl)c(Cl)cc(Cl)c2Cl)cc1Cl — outcome as called in the assay?
Result string: inactive

Query string: Any idea what this test logged for CCc1cc(Cc2cc(CC)cc(C(C)(C)C)c2O)c(O)c(C(C)(C)C)c1 ?
Result string: active

Query string: Which result was noted for this compound in the test: C=Cc1ccncc1
Result string: inactive

Query string: Name the outcome recorded for COc1ccccc1N=Nc1c(S(=O)(=O)O)cc2cc(S(=O)(=O)O)cc(NC(C)=O)c2c1O in the assay.
Result string: inactive

Query string: In this assay, the call recorded for CC1(C)COCN1 was what?
Result string: inactive

Query string: Assay result, entry CC(=O)CC(=O)Nc1ccc(C)cc1C — outcome?
Result string: inactive

Query string: Fill in: this test's call for CCCCCC(=O)CC is ___
Result string: inactive

Query string: For O=C1OC(=O)c2c(Br)c(Br)c(Br)c(Br)c21 , which call appears in the assay record?
Result string: inactive

Query string: Each compound tested received a call. Report the one for CCCC(=O)C(CC)Sc1ccoc1C (stereo unspecified) .
Result string: inactive

Query string: Please state the recorded outcome for this compound: N[C@@H](Cc1cc(I)c(Oc2cc(I)c(O)c(I)c2)c(I)c1)C(=O)O
Result string: active
